Give normalized growth for every item shown.
- assay protocol: chemical genetic growth profiling, strain panel (AID 1159580);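 further: tested at 20 µM; growth read once vehicle control cultures reached saturation at 30 °C; 1 = growth at the plate median or of vehicle wells; lower values mean less growth of the strain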
- assay setup: S. cerevisiae deletion strains, growth OD, locus YJR043C, strain POL32, hits give low values
In all, about 5,500 compounds went through this assay and about 2,000 (36%) were called active. Not shown: some 18% with an inconclusive outcome. Some of the results follow.
I'd appreciate a reply containing only the number, no unit.

Inquiry: I'd like to know its normalized growth. The molecule in question is `NCCS`
Reply text: 1.01

Inquiry: And then `CC(=O)NN(C)c1ccc(C(F)(F)F)cc1[N+](=O)[O-]` , what is it?
Reply text: 1.01

Inquiry: Now consider `NC(=S)Nc1cc(Cl)ccc1Cl` and answer again.
Reply text: 0.997

Inquiry: # iterate: `NNC(=S)Nc1ccc(C(F)(F)F)cc1`
Reply text: 0.972

Inquiry: What would you report for `CC1=CC(C)(C)NC(=S)N1` ?
Reply text: 1

Inquiry: Would you kindly repeat that for `COc1ccc(/C(C#N)=C/c2ccc(OC)c(OC)c2)cc1` ?
Reply text: 0.964

Inquiry: How about `COc1ccc(/C=N\NC(=O)CC#N)cc1OC` ?
Reply text: 1.01
